target: human ERK-2 (Mitogen Activated Kinase 1) (Homo sapiens); construct: N-terminal 6-His fusion protein in E. coli and corresponding to aa 8-360; 6-His (N); made in house; host or cells: E. coli; assay: ERK-2 Enzymatic Assay; type: biochemical; settings: TABLE II; 5nM ERK-2 enzyme, 25µM ATP, S/T17 peptide substrate; single assay or mean of multiple assays
// boundary case: IC50 equal to 5 nM maps to N; strictly smaller maps to Y

Solved entries:
>  <compound>
COc1ccc([C@H](NC(=O)c2ccc3cnc(Nc4ccnc(C)c4)nc3c2)c2cnn(C)c2)cc1F

>  <experimental-system>
human ERK-2 (Mitogen Activated Kinase 1) (Homo sapiens)

>  <group-label>
Y

$$$$
>  <compound>
COc1ccc([C@H](NC(=O)c2ccc3cnc(NC4CCOCC4)nc3c2)c2ccnn2C)cc1F

>  <experimental-system>
human ERK-2 (Mitogen Activated Kinase 1) (Homo sapiens)

>  <group-label>
Y

$$$$
>  <compound>
COc1ccc([C@H](NC(=O)c2cc(F)c3cnc(NCCC#N)nc3c2)c2cnn(C)c2)cc1F

>  <experimental-system>
human ERK-2 (Mitogen Activated Kinase 1) (Homo sapiens)

>  <group-label>
N

$$$$
>  <compound>
COc1ccc(C(NC(=O)c2cc(F)c3cnc(NC4CC5CC4CO5)nc3c2)c2cnn(C)c2)cc1F (stereo not drawn)

>  <experimental-system>
human ERK-2 (Mitogen Activated Kinase 1) (Homo sapiens)

>  <group-label>
N

$$$$
>  <compound>
COc1ccc([C@H](NC(=O)c2cc(F)c3cnc(NC4CCOCC4)nc3c2)c2cn(C)cn2)cc1F

>  <experimental-system>
human ERK-2 (Mitogen Activated Kinase 1) (Homo sapiens)

>  <group-label>
N

$$$$
>  <compound>
COc1ccc([C@H](NC(=O)c2ccc3cnc(Nc4ccnn4C)nc3c2)c2cnn(C)c2)cc1F

>  <experimental-system>
human ERK-2 (Mitogen Activated Kinase 1) (Homo sapiens)

>  <group-label>
Y

$$$$

Prompt line: I'd appreciate it if you could check whether Cc1cc(Nc2ncc3ccc(C(=O)N[C@@H](c4ccc(Cl)c(F)c4)c4cnn(C)c4)cc3n2)n(C)n1 has IC50 smaller than 5 nM.
Response line: N

Prompt line: I'd appreciate it if you could check whether COc1ccc([C@H](NC(=O)c2ccc3cnc(Nc4ccnn4C)nc3c2)c2ccnn2C)cc1F has IC50 smaller than 5 nM.
Response line: Y

Prompt line: I'd appreciate it if you could check whether COc1ccc([C@H](NC(=O)c2ccc3cnc(NC4CS(=O)(=O)C4)nc3c2)c2cnn(C)c2)cc1F has IC50 smaller than 5 nM.
Response line: N

Prompt line: I'd appreciate it if you could check whether O=C(N[C@@H](c1ccc(OC(F)(F)F)c(F)c1)C1CNCCO1)c1ccc2cnc(NC3CCOCC3)nc2c1 (stereo partly drawn) has IC50 smaller than 5 nM.
Response line: N

Prompt line: I'd appreciate it if you could check whether COc1ccc([C@H](NC(=O)c2cc(F)c3cnc(Nc4ccnn4C)nc3c2)c2nccn2C)cc1F has IC50 smaller than 5 nM.
Response line: N

Prompt line: I'd appreciate it if you could check whether COc1ccc([C@H](NC(=O)c2ccc3cnc(N[C@H]4C[C@H](O)C4)nc3c2)c2cnn(C)c2)cc1F has IC50 smaller than 5 nM.
Response line: Y

Prompt line: I'd appreciate it if you could check whether COCC(C)Nc1ncc2ccc(C(=O)N[C@@H](c3ccc(OC)c(F)c3)c3cnn(C)c3)cc2n1 (stereo partly drawn) has IC50 smaller than 5 nM.
Response line: N

Prompt line: I'd appreciate it if you could check whether COc1ccc([C@H](NC(=O)c2cc(F)c3cnc(NC4CCOCC4)nc3c2)c2cnco2)cc1F has IC50 smaller than 5 nM.
Response line: Y

Prompt line: I'd appreciate it if you could check whether Cn1nccc1[C@@H](NC(=O)c1ccc2cnc(NC3CCOCC3)nc2c1)c1ccc(Cl)c(F)c1 has IC50 smaller than 5 nM.
Response line: N

====

biological target: human ERK-2 (Mitogen Activated Kinase 1) (Homo sapiens, UniProt P28482); construct: N-terminal 6-His fusion protein in E. coli and corresponding to aa 8-360; 6-His (N); made in house; host or cells: E. coli; assay: ERK-2 Enzymatic Assay; type: biochemical; settings: TABLE II; 5nM ERK-2 enzyme, 25µM ATP, S/T17 peptide substrate; single assay or mean of multiple assays
Sequence (P28482 8-360): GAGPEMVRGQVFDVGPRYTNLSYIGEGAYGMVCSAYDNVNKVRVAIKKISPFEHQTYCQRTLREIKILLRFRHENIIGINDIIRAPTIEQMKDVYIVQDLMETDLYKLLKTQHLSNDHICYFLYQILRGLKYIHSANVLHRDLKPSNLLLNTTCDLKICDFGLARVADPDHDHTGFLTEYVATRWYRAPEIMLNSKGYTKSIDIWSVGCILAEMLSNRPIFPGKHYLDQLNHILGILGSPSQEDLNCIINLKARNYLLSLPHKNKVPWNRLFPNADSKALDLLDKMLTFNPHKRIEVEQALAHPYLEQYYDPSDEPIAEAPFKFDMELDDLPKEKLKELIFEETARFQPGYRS
measured-attribute: pIC50
Numbers only, as −log10 of the molar value.

A selection of reference data follows.
>  <compound>
COc1ccc([C@H](NC(=O)c2ccc3cnc(Nc4cc(C)nn4C)nc3c2)c2cnn(C)c2)cc1F

>  <pIC50>
8.68

$$$$
>  <compound>
C[C@@H](CO)Nc1ncc2c(F)cc(C(=O)N[C@@H](c3cccc(F)c3)c3cnn(C)c3)cc2n1

>  <pIC50>
8.25

$$$$
>  <compound>
Cn1cc(C(NC(=O)c2ccc3cnc(NC4CCOCC4)nc3c2)c2ccc(OC(F)F)cc2)cn1 (stereo not shown)

>  <pIC50>
7.92

$$$$
>  <compound>
COc1ccc([C@H](NC(=O)c2cc(F)c3cnc(NC4CCOCC4)nc3c2)c2cnn(C)c2)nc1

>  <pIC50>
6.82

$$$$
>  <compound>
Cn1cc([C@@H](NC(=O)c2cc(F)c3cnc(NC4CCOCC4)nc3c2)c2cccc(F)c2)cn1

>  <pIC50>
8.92

$$$$
>  <compound>
COc1ccnc(C(NC(=O)c2cc(F)c3cnc(NC4CCOCC4)nc3c2)c2cnn(C)c2)c1 (stereo not shown)

>  <pIC50>
7.21

$$$$
>  <compound>
COc1ccc([C@H](NC(=O)c2cc(F)c3cnc(NC4CCOCC4)nc3c2)c2c[nH]c(C)n2)cc1F

>  <pIC50>
6.79

$$$$
>  <compound>
COc1ccc([C@H](NC(=O)c2cc(F)c3cnc(N[C@@H](C)CO)nc3c2)c2cnn(C)c2)cc1F

>  <pIC50>
8.64

$$$$

State the recorded pIC50 for every item in the following list.
1. COc1ccc([C@H](NC(=O)c2cc(F)c3cnc(NC4CCOCC4)nc3c2)c2cncn2C)cc1F
2. COc1ccc([C@H](NC(=O)c2cc(F)c3cnc(NC4CCOCC4)nc3c2)c2ncc[nH]2)cc1F

Response line:
1. 8.96
2. 7.23

State the recorded pIC50 for every item in the following list.
1. COc1ccc([C@H](NC(=O)c2ccc3cnc(N[C@H]4CCOC[C@@H]4F)nc3c2)c2ccnn2C)cc1F
2. COc1ccc([C@H](NC(=O)c2cc(F)c3cnc(NC4CCOCC4)nc3c2)c2nccn2C)cc1F

Response line:
[8.44, 8.72]

====

So I've got a bunch of compounds here, and I need their IC50 values.
target: human ERK-2 (Mitogen Activated Kinase 1) (Homo sapiens, UniProt P28482); construct: N-terminal 6-His fusion protein in E. coli and corresponding to aa 8-360; 6-His (N); made in house; host or cells: E. coli; experiment: ERK-2 Enzymatic Assay; type: biochemical; conditions: TABLE II; 5nM ERK-2 enzyme, 25µM ATP, S/T17 peptide substrate; single assay or mean of multiple assays
Answers are plain numbers, in nM.

>  <compound>
COc1ccc([C@H](NC(=O)c2cc(F)c3cnc(Nc4cn(C)nc4C)nc3c2)c2cnn(C)c2)cc1F

>  <unit-abbreviation>
nM

>  <measured-number>
6.8

$$$$

State the recorded IC50 for every item in the following list.
1. COc1ccc([C@@H](NC(=O)c2cc(F)c3cnc(NC4CCOCC4)nc3c2)c2cnn(C)c2)cc1F
2. COc1ccc([C@H](NC(=O)c2ccc3cnc(Nc4cn(C)nc4C)nc3c2)c2cnn(C)c2)cc1F
3. COc1ccc([C@H](NC(=O)c2ccc3cnc(NC4CC(OC)C4)nc3c2)c2cnn(C)c2)cc1F (stereo partly shown)

Response line:
15.7
960
13.8

Values were extracted from patent EP2739618B1.
